Origin of values: ChEMBL document CHEMBL1144248

Assay: Cytotoxicity against human HBL100 cells after 72 hrs by MTT assay
Format: cell-based
Conditions: HBL-100, 72 h
Outcome measure: IC50

>>> df
                                test_smiles  outcome_measure  endpoint_result
0  COc1cc2oc(=O)cc(-c3cnc4ccccc4c3)c2c(OC)c1OC             IC50          > 50 µM
1   COc1cc(OC)c2c(-c3ccc(OC)nc3)cc(=O)oc2c1             IC50          > 50 µM
2  COc1cc2oc(=O)cc(-c3ccc4ccn(C)c4c3)c2c(OC)c1OC             IC50          > 50 µM

Task: Recorded IC50 of COc1cc2oc(=O)cc(-c3cnc(OCc4ccccc4)nc3OCc3ccccc3)c2c(OC)c1OC , please.
Result: > 50 µM

Task: What does the record list as IC50 for COc1cc2oc(=O)cc(-c3ccc4c(c3)CCO4)c2c(OC)c1OC ?
Result: > 50 µM

Task: Endpoint output: IC50 of COc1ccc(-c2cc(=O)oc3cc(OC)c(OC)c(OC)c23)cn1 . Value?
Result: > 20 µM
